The measurements presented in this section are drawn from patent US12202839B2.

assayed_target: Recombinant human PTP4A3 phosphatase (Homo sapiens (Human), UniProt O75365)
Sequence (O75365 whole entry): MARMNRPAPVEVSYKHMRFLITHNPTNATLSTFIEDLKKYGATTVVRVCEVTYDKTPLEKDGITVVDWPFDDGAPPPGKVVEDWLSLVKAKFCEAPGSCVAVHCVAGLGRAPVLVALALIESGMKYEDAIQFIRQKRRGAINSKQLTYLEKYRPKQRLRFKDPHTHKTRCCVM
measurement_protocol: In vitro inhibition of PTP4A3 phosphatase activity (automated enzymatic assay)
Format: biochemical
assay_conditions: mean of N independent assays, 10-point concentration curves, six replicates; read-out: IC50 (nM) ± SEM
recorded_metric: IC50 (nM)
Numbers only here, please. The scale is nM.

Some entries whose results are on file:
N=C1C(=O)NC(=O)c2cc(-c3ccccc3Cl)sc21 = 36.1
N=C1C(=O)NC(=O)c2cc(-c3cccc(C(F)(F)F)c3)sc21 = 193
CN1C(=O)C(=N)c2sc(-c3ccccc3)cc2C1=O = 48.9
N=C1C(=O)NC(=O)c2cc(-c3ccccc3F)sc21 = 53.4
CN1C(=O)C(=O)c2sc(-c3ccccc3)cc2C1=O = 32.2
N=C1C(=O)NC(=O)c2cc(-c3ccc(F)c(Cl)c3)sc21 = 67.7

Q: Look up IC50: "N=C1C(=O)NC(=O)c2cc(-c3ccc(Cl)cc3)sc21"
Result: 41.9

Q: What do you have for "CC(C)(C)C(=O)Oc1ccc(-c2cc3c(s2)C(=N)C(=O)NC3=O)cc1" ?
Result: 256

Q: What do you have for "N=C1C(=O)NC(=O)c2cc(-c3ccc(F)cc3)sc21" ?
Result: 71

====

assayed_target: Recombinant human PTP4A3 phosphatase (Homo sapiens (Human), UniProt O75365)
measurement_protocol: In vitro inhibition of PTP4A3 phosphatase activity (automated enzymatic assay)
Type: biochemical
assay_conditions: mean of N independent assays, 10-point concentration curves, six replicates; read-out: IC50 (nM) ± SEM
recorded_metric: IC50 (nM)
Numbers only here, please. The scale is nM.

N=C1C(=O)N(CC2CC2)C(=O)c2cc(-c3ccccc3)sc21 = 85.7

Q: Look up IC50: "N=C1C(=O)NC(=O)c2cc(-c3cccc(Cl)c3)sc21"
Result: 65.7

Q: What do you have for "COc1cccc(-c2cc3c(s2)C(=N)C(=O)NC3=O)c1" ?
Result: 47.6

Q: What do you have for "Cc1cccc(-c2cc3c(s2)C(=N)C(=O)NC3=O)c1" ?
Result: 53.4

Q: What do you have for "N=C1C(=O)NC(=O)c2cc(-c3ccc(OCCN4CCOCC4)cc3)sc21" ?
Result: 98.2

====

System: COV362
measurement_protocol: Monolayer cancer cell viability, Alamar blue
Assay type: cell-based
assay_conditions: 48-hour exposure, read-out: EC50 (mean μM ± SEM)
recorded_metric: EC50 (µM)
Numbers only here, please. The scale is µM.

Q: Look up EC50: "N=C1C(=O)NC(=O)c2cc(-c3ccc(OCCCCNC(=O)CC45CC6CC(CC(C6)C4)C5)cc3)sc21"
Result: 25.7

====

Tested on: U937 (human Histiocytic lymphoma)
measurement_protocol: Leukemia/lymphoma cell viability, Alamar blue
Format: cell-based
assay_conditions: U-937, 48 h, read-out: EC50 (mean μM ± SEM)
recorded_metric: EC50
Please state the number and follow it with the unit.

Q: Look up EC50: "N=C1C(=O)NC(=O)c2cc(-c3ccc(OCCCCNC(=O)CC45CC6CC(CC(C6)C4)C5)cc3)sc21"
Result: 6.87 µM

====

# IC50 per entry
assayed_target: recombinant human His6-tagged PTP4A3 (Homo sapiens (Human), UniProt O75365)
measurement_protocol: In vitro biochemical analysis of PTP4A inhibition, DiFMUP substrate
assay_conditions: DiFMUP 12 μM, 25° C., 25 minutes; read-out: IC50 values for Compounds Inhibiting Activity of PTP4A Family Members (mean (nM) ± S.E.M.), PTP4A3
Numbers only here, please. The scale is nM.

CN1C(=O)C(=N)c2sc(-c3ccccc3)cc2C1=O = 86
N=C1C(=O)NC(=O)c2cc(-c3ccccc3Cl)sc21 = 36.1

Continue with the next compound.
Q: Look up IC50: "N=C1C(=O)NC(=O)c2cc(-c3ccc(OCCN4CCOCC4)cc3)sc21"
Result: 98.2
